- Target of assay: KHK-C expressed in NRK-52E cells (Homo sapiens (Human))
- Sequence (P50053 whole entry): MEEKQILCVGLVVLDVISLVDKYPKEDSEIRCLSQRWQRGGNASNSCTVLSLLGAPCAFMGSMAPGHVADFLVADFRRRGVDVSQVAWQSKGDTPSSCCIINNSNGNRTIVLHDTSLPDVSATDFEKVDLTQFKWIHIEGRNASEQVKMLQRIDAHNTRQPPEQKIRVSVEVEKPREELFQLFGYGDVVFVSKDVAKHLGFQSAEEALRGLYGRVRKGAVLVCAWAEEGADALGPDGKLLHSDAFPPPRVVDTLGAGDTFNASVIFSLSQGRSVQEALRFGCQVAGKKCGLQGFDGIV
- Assay info: KHK-C Cell-based Assay (EC50), NRK CTG, fructose-mediated ATP-depletion
Result type: EC50 (nM)

# Compound, Result type, Endpoint unit, Meas value
measured = [
    ("C[C@H]1[C@H](O)CN1c1nc(-c2ccc(C3(O)CS(=O)(=O)C3)cc2)c2c(n1)C(F)(F)CC2", "EC50", "nM", 52.1),
    ("C[C@H]1[C@H](O)CN1c1nc2c(c(-c3ccc4c(c3)C(=O)N(C)C4)n1)CCC2", "EC50", "nM", 109),
]

1. C[C@H]1[C@H](O)CN1c1nc(-c2ccc3c(c2)OC[C@]32NC(=O)OC2(C)C)c2c(n1)C(F)(F)CC2 (single isomer, unassigned)
2. C[C@H]1CCN1c1nc(-c2cccc(N=[S@](C)(N)=O)c2)c2c(n1)C(F)(F)CC2 (single isomer, unassigned)
3. C[C@H]1CCN1c1nc2c(c(-c3ccc4[nH]c(=O)[nH]c(=O)c4c3)n1)CCC2
4. C[C@H]1CCN1c1nc2c(c(-c3ccc(C(N)=O)cc3)n1)CC2
5. COc1ccc(-c2nc(N3C[C@@H](O)[C@@H]3C)nc3c2CCC3(F)F)cc1S(=N)(=O)C(F)F (stereo partly shown)
Q. # rank by EC50, ascending (min first) The reply should contain the labels ordered as requested.
A. 1, 5, 2, 3, 4
(1: 6.7 nM, 5: 20.5 nM, 2: 44.9 nM, 3: 122 nM, 4: 973 nM)
